Test system: SNB-75 CNS
procedure summary: NCI-60 one-dose screen, 48 h
run parameters: 10 µM unless noted
The panel holds about 83,000 compounds, 20% with a hit somewhere; the sample as a whole holds those more often. The source made the active and inactive calls. The calls were made as follows: active = growth percent below 10; inactive = the rest.
Hi there, use one of these labels in your reply, thanks! active, inactive

- compound: "COc1ccc(C(=O)Nc2n[nH]c(Nc3ccccc3)c2C#N)cc1"
  study target: "SNB-75 CNS"
  category label: "inactive"
- compound: "COc1cc2c(c(OC)c1OC)C(=O)CC(c1cccc(NC(=O)c3cc(NC(=O)[C@H](CO)NC(=O)OC(C)(C)C)ccc3Cl)c1)O2 (stereo partly drawn)"
  study target: "SNB-75 CNS"
  category label: "inactive"
- compound: "CCN1C(=O)/C(=N\\N=C(/C)c2ccc3c(c2)Nc2ccccc2S3)c2cc(Cl)ccc21"
  study target: "SNB-75 CNS"
  category label: "inactive"

Inquiry: I would be grateful if you could indicate the recorded call for COC(OC)C1=C(C)OC(N)=C(C#N)C12C(=O)Nc1ccccc12 (stereo not drawn) .
Reply text: inactive

Inquiry: I would be grateful if you could indicate the recorded call for CC1(C)CC[C@]2(C(=O)O)CC[C@]3(C)C(=CCC4[C@@]5(C)C[C@@H](O)[C@@H]6OC(c7ccc(F)cc7)OC[C@@]6(C)C5CC[C@]43C)C2C1 (stereo partly drawn) .
Reply text: inactive

Inquiry: I would be grateful if you could indicate the recorded call for Cn1cc(-c2nc(N)nnc2-c2c[nH]c3ccc(F)cc23)c2cccnc21 .
Reply text: active

Inquiry: I would be grateful if you could indicate the recorded call for Cc1cccc(-c2nc(Nc3cccc(S(N)(=O)=O)c3)c3ccccc3n2)c1 .
Reply text: inactive

Inquiry: I would be grateful if you could indicate the recorded call for OCNc1ccc(-n2cnc3cc(-c4ccc(O)cc4)ccc32)cc1C(F)(F)F .
Reply text: inactive

Inquiry: I would be grateful if you could indicate the recorded call for C/C(=N\N=C\c1cc([N+](=O)[O-])ccc1Cl)c1ccc2c(c1)Nc1ccccc1S2 .
Reply text: active

Inquiry: I would be grateful if you could indicate the recorded call for N#Cc1c(-c2cccc(Cl)c2Cl)cc(-c2c[nH]c3ccccc23)[nH]c1=O .
Reply text: inactive

Inquiry: I would be grateful if you could indicate the recorded call for Cc1cc(=O)oc2cc(OCCOc3ccc(/C=C/C(=O)Nc4ccccc4N)cc3)ccc12 .
Reply text: inactive

Inquiry: I would be grateful if you could indicate the recorded call for COc1cc(C2CC(c3cc(OC)c(OC)c(OC)c3)=NN2C(C)=O)ccc1OCc1ccc(F)cc1 (stereo not drawn) .
Reply text: inactive

Inquiry: I would be grateful if you could indicate the recorded call for COc1ccc(C2=NN(c3ccccc3)C(c3ccc(OCc4ccccc4)c(OC)c3)C2)cc1OC (stereo not drawn) .
Reply text: inactive

Inquiry: I would be grateful if you could indicate the recorded call for S=C(Nc1ccccc1)Nc1ccc(OCc2nc3ccccc3[nH]2)cc1 .
Reply text: inactive

Inquiry: I would be grateful if you could indicate the recorded call for Cc1ccc(C2CC(c3ccc(S(=O)(=O)NCCNc4nc(Nc5ccc(F)cc5)nc(N(C)C)n4)cc3)=Nc3c(N)nc(N)nc3N2)cc1 (stereo not drawn) .
Reply text: inactive

Inquiry: I would be grateful if you could indicate the recorded call for CC(=O)OC[C@@]1(C)C2CC[C@]3(C)C(CC=C4C5CC(C)(C)CC[C@]5(C(=O)Nc5cccc(C)c5)CC[C@]43C)[C@@]2(C)C[C@@H](OC(C)=O)[C@@H]1OC(C)=O (stereo partly drawn) .
Reply text: inactive

Inquiry: I would be grateful if you could indicate the recorded call for Cn1cc(-c2cc(N)n3nc(-c4cn(C)c5ccccc45)cc3n2)c2cc(Br)ccc21 .
Reply text: active

Inquiry: I would be grateful if you could indicate the recorded call for COc1ccc(C(=O)/C=C/c2ccc(OC)c(OCc3ccccc3)c2)cc1OC .
Reply text: inactive

Inquiry: I would be grateful if you could indicate the recorded call for OCC1(CCCc2ccccc2)CCCN(c2nccc3ccccc23)C1 (stereo not drawn) .
Reply text: inactive

Inquiry: I would be grateful if you could indicate the recorded call for CCN1CCN(Cc2ccc(C(=O)Nc3cccc(C#Cc4cccc5[nH]nc(N)c45)c3)cc2C(F)(F)F)CC1 .
Reply text: active

Inquiry: I would be grateful if you could indicate the recorded call for COC1=C[C@]23CCC(=O)N2CCc2cc4c(cc2[C@@H]3[C@@H]1OC(=O)[C@H](C)O)OCO4 .
Reply text: active

Inquiry: I would be grateful if you could indicate the recorded call for CC1(C)CC[C@]2(C(=O)O)CC[C@]3(C)C(=CCC4[C@@]5(C)C[C@@H](O)[C@@H]6OC(c7ccco7)OC[C@@]6(C)C5CC[C@]43C)C2C1 (stereo partly drawn) .
Reply text: inactive

Inquiry: I would be grateful if you could indicate the recorded call for O=C(N=Nc1c(O)[nH]c2ccc(Cl)cc12)c1ccc2nc(-c3ccccc3)[nH]c2c1 .
Reply text: inactive

Origin of the recorded values: PubChem BioAssay (NCI)
